Each recorded value in this set is attributed to PubChem BioAssay AID1117324.

Test system: VEGF-stimulated ADSC/ECFC co-culture, nuclear area imaging
assay explanation: nuclear area loss in endothelial-stromal co-culture, dose response, cell-based, VEGF stimulation, IC50 (AID 1117324)
The source made the active and inactive calls. No rule for the calls is given here.
result type: IC50

Consider the following illustrative entries.
# smiles repr, measured target, obs value
data = [
    ("O=[N+]([O-])c1ccc(Oc2ccc(N=C=S)cc2)cc1", "VEGF-stimulated ADSC/ECFC co-culture, nuclear area imaging", "> 10 µM (inactive)"),
    ("COC(=O)Nc1nc2ccc(C(=O)c3cccs3)cc2[nH]1", "VEGF-stimulated ADSC/ECFC co-culture, nuclear area imaging", "> 10 µM (inactive)"),
    ("Cc1c(C)c2c(c(C)c1OC(=O)CCC(=O)O)CC[C@@](C)(CCC[C@H](C)CCC[C@H](C)CCCC(C)C)O2", "VEGF-stimulated ADSC/ECFC co-culture, nuclear area imaging", "> 10 µM (inactive)"),
    ("COC(=O)Nc1nc2ccc(C(=O)c3ccccc3)cc2[nH]1", "VEGF-stimulated ADSC/ECFC co-culture, nuclear area imaging", "> 10 µM (inactive)"),
]

# next compound below
Reported IC50 of C#C[C@]1(O)CC[C@@H]2[C@@H]3CCC4=CCCC[C@@H]4[C@H]3C(=C)C[C@@]21CC : 9.57 µM (inactive)

* * *

Tested on: VEGF-stimulated ADSC/ECFC co-culture, nuclear area imaging
assay explanation: nuclear area loss in endothelial-stromal co-culture, dose response, cell-based, VEGF stimulation, IC50 (AID 1117324)
Active and inactive are the calls of the source. How the calls were made is not given here.
Select the correct class. Options are 1 for active, 0 for inactive and nothing else.

# molecule, measured target, qualitative label
measured = [
    ("Cc1[nH]cnc1C[C@H]1CCc2c(C)c3ccccc3n2C1=O", "VEGF-stimulated ADSC/ECFC co-culture, nuclear area imaging", 0),
    ("CCCCCCCCCCCCCCCCCC[N+](C)(C)CCC[Si](OC)(OC)OC", "VEGF-stimulated ADSC/ECFC co-culture, nuclear area imaging", 0),
    ("O=C1CC(c2ccc(Cl)cc2)CC(=O)N1", "VEGF-stimulated ADSC/ECFC co-culture, nuclear area imaging", 0),
    ("Cc1c(C(=O)NN2CCCCC2)nn(-c2ccc(Cl)cc2Cl)c1-c1ccc(Cl)cc1", "VEGF-stimulated ADSC/ECFC co-culture, nuclear area imaging", 0),
]

Enquiry: Which result was noted for this molecule in the test: CN1CCN(CCCN2c3ccccc3Sc3ccc(S(=O)(=O)N(C)C)cc32)CC1
Return: 0

Enquiry: Which outcome was entered for the molecule CCOc1ccc2nc3cc(N)ccc3c(N)c2c1 in this test?
Return: 0

* * *

System: VEGF-stimulated ADSC/ECFC co-culture, nuclear area imaging
assay explanation: nuclear area loss in endothelial-stromal co-culture, dose response, cell-based, VEGF stimulation, IC50 (AID 1117324)
Calls of active or inactive are those of the source. How the calls were made is not given here.
The categories you may choose from are T (active), F (inactive)

Here's what some known entries look like.
# molecule, qualitative label
measured = [
    ("Oc1ccc(Cl)cc1Sc1cc(Cl)ccc1O", "F"),
    ("Clc1cc(Cl)c(OCC#CI)cc1Cl", "F"),
    ("CO[C@@H]1[C@@H](OC)[C@H](C)[C@@](O)(CC(=O)O)O[C@H]1[C@H](C)[C@H]1O[C@@]2(CC[C@@](C)([C@H]3CC[C@@](C)([C@@H]4O[C@@H]([C@H]5O[C@](C)(O)[C@H](C)C[C@@H]5C)C[C@@H]4OC4C[C@H](OC)[C@@H](OC)[C@H](C)O4)O3)O2)C[C@H](O)[C@H]1C (some centres not stated)", "T"),
    ("CCCCCCCCCCCCNCCNCCNCC(=O)O", "F"),
    ("CCCCCCCCOC(=O)c1ccccc1C(=O)OCCCCCCCC", "F"),
    ("COP(=S)(OC)Oc1ccc(Sc2ccc(OP(=S)(OC)OC)cc2)cc1", "F"),
    ("CNS(=O)(=O)CCc1ccc2[nH]cc(C3CCN(C)CC3)c2c1", "F"),
    ("NC(=NCCCCCCN=C(N)/N=C(\\N)Nc1ccc(Cl)cc1)/N=C(\\N)Nc1ccc(Cl)cc1", "F"),
    ("CCCCN(CCCC)CCC(O)c1cc2c(Cl)cc(Cl)cc2c2cc(C(F)(F)F)ccc12 (configuration not stated)", "F"),
    ("COc1ccc(CCN2CCC(Nc3nc4ccccc4n3Cc3ccc(F)cc3)CC2)cc1", "F"),
]

Enquiry: Called result for CCc1oc2ccccc2c1C(=O)c1cc(Br)c(O)c(Br)c1
Return: F

Enquiry: What call does the record list for Cc1c(O)cc2c(c1C)O[C@](C)(CCC[C@H](C)CCC[C@H](C)CCCC(C)C)CC2 ?
Return: F

Enquiry: Called result for O=c1oc2c(O)c(O)cc3c(=O)oc4c(O)c(O)cc1c4c23
Return: F

Enquiry: Please indicate how the test categorized C[S+](CC[C@H](N)C(=O)O)C[C@H]1O[C@@H](n2cnc3c(N)ncnc32)[C@H](O)[C@H]1O (some centres not stated) .
Return: F

Enquiry: What classification did CC(=O)N(O)CCCCCNC(=O)CCC(=O)N(O)CCCCCNC(=O)CCC(=O)N(O)CCCCCN end up with in this test?
Return: F

Enquiry: Just curious, what result did CSc1ccc2c(c1)N(CCC1CCCCN1C)c1ccccc1S2 (configuration not stated) get here?
Return: F

Enquiry: Per the assay record, what outcome was assigned to Nc1nc(=S)c2[nH]cnc2[nH]1 ?
Return: F

* * *

System: VEGF-stimulated ADSC/ECFC co-culture, nuclear area imaging
assay explanation: nuclear area loss in endothelial-stromal co-culture, dose response, cell-based, VEGF stimulation, IC50 (AID 1117324)
Activity calls are given as the source filed them. The rule behind the calls is not given here.
result type: IC50

Solved cases (3 shown):
# molecule, measured target, IC50
rows = [
    ("CCCCc1ccc2nc(NC(=O)OC)[nH]c2c1", "VEGF-stimulated ADSC/ECFC co-culture, nuclear area imaging", "> 10 µM (inactive)"),
    ("NC(=O)C1(N2CCCCC2)CCN(CCCN2c3ccccc3CCc3ccc(Cl)cc32)CC1", "VEGF-stimulated ADSC/ECFC co-culture, nuclear area imaging", "> 10 µM (inactive)"),
    ("COC(=O)C1=C(C)NC(C)=C(C(=O)OCCN2CCN(C(c3ccccc3)c3ccccc3)CC2)C1c1cccc([N+](=O)[O-])c1 (configuration not stated)", "VEGF-stimulated ADSC/ECFC co-culture, nuclear area imaging", "> 10 µM (inactive)"),
]

Sample C[C@@]12C(=O)OC(=O)[C@]1(C)C1CCC2O1 ; IC50 observed: 8.33 µM (inactive)

The reported IC50 of the molecule O=C1NCN(c2ccccc2)C12CCN(CCCC(c1ccc(F)cc1)c1ccc(F)cc1)CC2 was 8.09 µM (inactive)

molecule C[C@@H]1C[C@@H]([C@H](O)CC2CC(=O)NC(=O)C2)C(=O)[C@@H](C)C1 , IC50 observed: > 10 µM (inactive)

# IC50 (molecule: COc1ccc(Cc2nccc3cc(OC)c(OC)cc23)cc1OC ) is > 10 µM (inactive)

* * *

System: VEGF-stimulated ADSC/ECFC co-culture, nuclear area imaging
assay explanation: nuclear area loss in endothelial-stromal co-culture, dose response, cell-based, VEGF stimulation, IC50 (AID 1117324)
Calls of active or inactive are those of the source. How the calls were made is not given here.
result type: IC50

Worked examples follow.
# smiles repr, measured target, IC50
rows = [
    ("CCCCCCCC/C=C\\CCCCCCCCN", "VEGF-stimulated ADSC/ECFC co-culture, nuclear area imaging", "9.13 µM (inactive)"),
    ("Clc1ccccc1C(c1ccccc1)(c1ccccc1)n1ccnc1", "VEGF-stimulated ADSC/ECFC co-culture, nuclear area imaging", "> 10 µM (inactive)"),
]

The molecule identified as O=C1c2ccccc2C(=O)C1C(=O)C(c1ccccc1)c1ccccc1 registered its IC50 at > 10 µM (inactive)

* * *

System: VEGF-stimulated ADSC/ECFC co-culture, nuclear area imaging
assay explanation: nuclear area loss in endothelial-stromal co-culture, dose response, cell-based, VEGF stimulation, IC50 (AID 1117324)
The source made the active and inactive calls. How the calls were made is not given here.
result type: IC50

# compound, IC50
measured = [
    ("COc1cc2nc(N3CCN(C(=O)C4COc5ccccc5O4)CC3)nc(N)c2cc1OC (centres undefined)", "> 10 µM (inactive)"),
    ("Cc1onc(-c2c(Cl)cccc2Cl)c1C(=O)Cl", "> 10 µM (inactive)"),
    ("COc1ccc2cc1Oc1ccc(cc1)C[C@H]1c3c(cc4c(c3Oc3cc5c(cc3OC)CCN(C)[C@@H]5C2)OCO4)CCN1C", "> 10 µM (inactive)"),
    ("COc1ccc(/C=N/NC(=O)c2ccncc2)cc1OC", "> 10 µM (inactive)"),
    ("O=C(O)c1ccc(-n2nc(-c3ccccc3O)nc2-c2ccccc2O)cc1", "> 10 µM (inactive)"),
]

response.value for CCC(C)(C)C(=O)O[C@H]1C[C@@H](C)C=C2C=C[C@H](C)[C@H](CC[C@@H]3C[C@@H](O)CC(=O)O3)[C@H]21 (field: IC50) = 5.13 µM (inactive)

Reported IC50 of CCCCCCCCCCCCCCCC(=O)OCC=C(C)C=CC=C(C)C=CC1=C(C)CCCC1(C)C : > 10 µM (inactive)

Lab book: IC50 of CN(C)c1ccc(C(=C2C=CC(=[N+](C)C)C=C2)c2ccccc2)cc1 noted as 1.72 µM

Lab book: IC50 of CCc1oc2ccccc2c1C(=O)c1cc(I)c(O)c(I)c1 noted as > 10 µM (inactive)
